Origin of values: PubChem BioAssay AID1159580

# PROTOCOL TEXT: chemical genetic growth profiling, strain panel (AID 1159580);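 note: tested at 20 µM; growth read once vehicle control cultures reached saturation at 30 °C; 1 = growth at the plate median or of vehicle wells; lower values mean less growth of the strain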
# SETTINGS: S. cerevisiae deletion strains, growth OD, locus YKR001C, strain vps1, hits give low values
Hit rate of the full screen: of about 5,500 compounds, about 2,000 (36%) were called active. Another 18% or so got no clear call; they are omitted. This is one part of the list.

| COMPOUND | normalized growth |
| --- | --- |
| CCOC(=O)C1=C(C)NC(C)=C(C(=O)OC)C1c1cccc([N+](=O)[O-])c1 (stereo not drawn) | 1 |
| Cc1ncc([N+](=O)[O-])n1CCO | 1 |
| COc1cc(O)c(C(=O)O)c(O)c1 | 1.02 |
| Cn1nnnc1SCC1=C(C(=O)O)N2C(=O)C(NC(=O)C(OC=O)c3ccccc3)C2SC1 (stereo not drawn) | 1.02 |
| CC(C(=O)O)c1ccc(N2Cc3ccccc3C2=O)cc1 (stereo not drawn) | 0.976 |
| N#Cc1ccc2c(c1)N(CCCN1CCC(O)CC1)c1ccccc1S2 | 1.02 |
| CCCCC(=O)N(Cc1ccc(-c2ccccc2-c2nn[nH]n2)cc1)[C@H](C(=O)O)C(C)C | 0.987 |
| CSCCC(NC=O)C(=O)NC(CC(C)C)C(=O)NC(Cc1ccccc1)C(=O)O (stereo not drawn) | 0.992 |
| O=[N+]([O-])/N=C1/NCCN1Cc1ccc(Cl)cc1 | 0.983 |
| CC1=C(C(=O)O)N2C(=O)[C@@H](NC(=O)[C@H](N)C3=CCC=CC3)C2SC1 (stereo partly drawn) | 0.994 |
| COc1cc(O)c(C(C)=O)c(OC)c1 | 0.998 |
| COc1c(O)cc(O)cc1O | 1.01 |
| Cc1cc(C)nc(NS(=O)(=O)c2ccc(N)cc2)n1 | 0.98 |
